Record: IC50 reported on UniProt I3LUI7.
Sequence (I3LUI7 19-1212): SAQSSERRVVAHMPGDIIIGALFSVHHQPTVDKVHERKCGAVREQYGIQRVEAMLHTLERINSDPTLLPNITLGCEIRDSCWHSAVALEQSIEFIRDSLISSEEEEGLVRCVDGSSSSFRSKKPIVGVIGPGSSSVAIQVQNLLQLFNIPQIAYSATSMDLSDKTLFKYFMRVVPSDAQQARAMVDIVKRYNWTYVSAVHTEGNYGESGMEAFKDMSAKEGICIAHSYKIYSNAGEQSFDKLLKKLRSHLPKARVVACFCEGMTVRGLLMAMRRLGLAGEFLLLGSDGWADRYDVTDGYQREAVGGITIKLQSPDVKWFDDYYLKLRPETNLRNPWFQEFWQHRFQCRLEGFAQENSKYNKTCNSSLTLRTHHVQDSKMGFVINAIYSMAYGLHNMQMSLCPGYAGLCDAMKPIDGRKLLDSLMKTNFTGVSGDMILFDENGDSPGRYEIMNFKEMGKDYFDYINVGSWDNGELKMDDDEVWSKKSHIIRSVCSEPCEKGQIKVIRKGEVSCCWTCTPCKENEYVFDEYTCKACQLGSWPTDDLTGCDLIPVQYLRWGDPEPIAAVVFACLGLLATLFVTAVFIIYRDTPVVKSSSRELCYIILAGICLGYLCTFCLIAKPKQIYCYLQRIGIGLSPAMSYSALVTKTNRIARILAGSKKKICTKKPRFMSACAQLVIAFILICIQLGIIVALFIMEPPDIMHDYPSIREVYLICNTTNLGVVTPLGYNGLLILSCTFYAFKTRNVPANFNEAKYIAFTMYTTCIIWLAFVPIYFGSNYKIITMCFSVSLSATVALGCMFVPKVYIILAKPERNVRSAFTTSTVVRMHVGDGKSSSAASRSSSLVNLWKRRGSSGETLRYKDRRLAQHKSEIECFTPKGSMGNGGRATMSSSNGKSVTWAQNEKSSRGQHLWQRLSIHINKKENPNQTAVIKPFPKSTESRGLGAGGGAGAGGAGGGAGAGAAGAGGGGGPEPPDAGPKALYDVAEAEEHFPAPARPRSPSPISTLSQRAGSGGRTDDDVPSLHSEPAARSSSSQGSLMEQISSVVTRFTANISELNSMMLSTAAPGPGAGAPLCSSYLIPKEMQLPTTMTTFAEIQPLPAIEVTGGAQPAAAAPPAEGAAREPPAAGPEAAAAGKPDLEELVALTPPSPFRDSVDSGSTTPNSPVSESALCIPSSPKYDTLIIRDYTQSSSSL
Where a name gives a salt, the structure may show the parent alone.
Numbers only; they are read as nM.

The examples below pair each entry with its known result.
[
  {
    "COMPOUND": "CC(C)(C)Nc1c(-c2ccc(C#Cc3nccs3)s2)nc2ccccn12 [Example 332, hydrochloride]",
    "EXPERIMENTAL_SYSTEM": "UniProt I3LUI7",
    "IC50 / nM": 14
  },
  {
    "COMPOUND": "CC(C)(C)Nc1c(-c2ccc(C#Cc3ncccn3)s2)nc2cnccn12 [Example 129, hydrochloride]",
    "EXPERIMENTAL_SYSTEM": "UniProt I3LUI7",
    "IC50 / nM": 12
  },
  {
    "COMPOUND": "CC(C)(C)Nc1c(-c2ccc(C#Cc3ncccc3F)s2)nc2ccccn12 [Example 336, hydrochloride]",
    "EXPERIMENTAL_SYSTEM": "UniProt I3LUI7",
    "IC50 / nM": 6.1
  }
]

We now examine a further compound.
Reading of IC50 for Cc1cc(C#Cc2ccccn2)sc1-c1nc2cnccn2c1NC(C)(C)C [Example 183, hydrochloride] with UniProt I3LUI7: 230
